The following molecules are shown together with reported EC50 values.
- Test system: HeLa
- assay protocol: Antiproliferative activity against human HeLa cells after 48 hrs by MTS assay
- Type: functional, cell-based
parameter: EC50 (µM)

[
  {
    "molecule": "COc1cc2c(cc1CCC(=O)N(C)C)Nc1cc(-c3ccc([N+](=O)[O-])c(OC)c3)ccc1C(=O)N2",
    "qualifier symbol": ">",
    "numeric readout": 59
  },
  {
    "molecule": "COc1cc2c(cc1CCCO)Nc1cc(-c3ccc([N+](=O)[O-])c(OC)c3)ccc1C(=O)N2",
    "qualifier symbol": ">",
    "numeric readout": 59
  },
  {
    "molecule": "COc1cc2c(cc1OCc1csc(C)n1)Nc1cc(-c3ccc([N+](=O)[O-])c(OC)c3)ccc1C(=O)N2",
    "qualifier symbol": ">",
    "numeric readout": 59
  },
  {
    "molecule": "COc1cc2c(cc1CCC(C)(C)O)Nc1cc(-c3ccc([N+](=O)[O-])c(OC)c3)ccc1C(=O)N2",
    "qualifier symbol": ">",
    "numeric readout": 59
  },
  {
    "molecule": "COc1cc2c(cc1C(=O)N(C)C)NC(=O)c1ccc(-c3ccc([N+](=O)[O-])c(OC)c3)cc1N2",
    "qualifier symbol": "=",
    "numeric readout": 45
  },
  {
    "molecule": "COc1cc2c(cc1CCCO)NC(=O)c1ccc(-c3ccc([N+](=O)[O-])c(OC)c3)cc1N2",
    "qualifier symbol": "=",
    "numeric readout": 22
  },
  {
    "molecule": "COc1cc2c(cc1CCc1ccncc1)Nc1cc(-c3ccc([N+](=O)[O-])c(OC)c3)ccc1C(=O)N2",
    "qualifier symbol": "=",
    "numeric readout": 9.6
  },
  {
    "molecule": "COc1cc(-c2ccc3c(c2)Nc2ccccc2NC3=O)ccc1[N+](=O)[O-]",
    "qualifier symbol": "=",
    "numeric readout": 47.7
  },
  {
    "molecule": "COC(=O)c1cc2c(cc1OC)Nc1cc(-c3ccc([N+](=O)[O-])c(OC)c3)ccc1C(=O)N2",
    "qualifier symbol": ">",
    "numeric readout": 59
  },
  {
    "molecule": "COc1cc2c(cc1OCC1CCCCO1)Nc1cc(-c3ccc([N+](=O)[O-])c(OC)c3)ccc1C(=O)N2 (configuration not stated)",
    "qualifier symbol": "=",
    "numeric readout": 2
  },
  {
    "molecule": "COc1cc2c(cc1O)Nc1cc(-c3ccc([N+](=O)[O-])c(OC)c3)ccc1C(=O)N2",
    "qualifier symbol": ">",
    "numeric readout": 59
  },
  {
    "molecule": "COc1cc2c(cc1CC(C)(C)O)Nc1cc(-c3ccc([N+](=O)[O-])c(OC)c3)ccc1C(=O)N2",
    "qualifier symbol": ">",
    "numeric readout": 59
  },
  {
    "molecule": "COC(=O)CCc1cc2c(cc1OC)NC(=O)c1ccc(-c3ccc([N+](=O)[O-])c(OC)c3)cc1N2",
    "qualifier symbol": ">",
    "numeric readout": 59
  },
  {
    "molecule": "COCCOCCOc1cc2c(cc1OC)NC(=O)c1ccc(-c3ccc([N+](=O)[O-])c(OC)c3)cc1N2",
    "qualifier symbol": "=",
    "numeric readout": 52
  },
  {
    "molecule": "COc1cc2c(cc1OCCCCO)Nc1cc(-c3ccc([N+](=O)[O-])c(OC)c3)ccc1C(=O)N2",
    "qualifier symbol": ">",
    "numeric readout": 59
  },
  {
    "molecule": "COc1cc2c(cc1OCCN1CCOCC1)Nc1cc(-c3ccc([N+](=O)[O-])c(OC)c3)ccc1C(=O)N2",
    "qualifier symbol": "=",
    "numeric readout": 2
  },
  {
    "molecule": "COc1cc2c(cc1OCCCN)Nc1cc(-c3ccc([N+](=O)[O-])c(OC)c3)ccc1C(=O)N2",
    "qualifier symbol": "=",
    "numeric readout": 17.3
  }
]
